Assay Method Text: Solubility measurement of saturated solutions by HPLC at room temperature (0 h and 24 h)
Type: physicochemical
Experimental Parameters: buffered water with excipients, pH 4, aqueous with cosolvent or surfactant or cyclodextrin, thermodynamic from solid, CBS 30 mM pH 4.0, NaCl 3 mg/mL; SBE-beta-CD 40 mg/mL + Kollidon 12 P188 5 mg/mL; 0 h; pH exp 4.1
Property: solubility at 0 h (µg/mL)

COc1cc(N2CCNCC2)ccc1Nc1ncc2c(n1)-n1ccc(C(=O)Nc3c(C)cccc3C)c1CC2
2590

====

Assay Method Text: Solubility measurement of saturated solutions by HPLC at room temperature (0 h and 24 h)
Type: physicochemical
Experimental Parameters: buffered water with excipients, pH 2, aqueous with cosolvent or surfactant or cyclodextrin, thermodynamic from solid, CBS 30 mM pH 2.0, NaCl 3 mg/mL; SBE-beta-CD 40 mg/mL; 0 h; pH exp 2.2
Experimental: The vial contents are prepared starting with 2.5 mg of the compound of formula (I). The primary excipient is added followed by any further excipient and then the buffered water to a total volume of 500 μL. All components are mixed in a vortex mixer for ca. 5 minutes. […] The solubility in vial 1 is measured immediately as described below. To measure solubility 400 μl of the suspension are taken and placed in a centrifugation device above a 0.2 μm filter. […] The pH of the solution is measured. […]
Property: solubility at 0 h (µg/mL)

COc1cc(N2CCNCC2)ccc1Nc1ncc2c(n1)-n1ccc(C(=O)Nc3c(C)cccc3C)c1CC2
6590

====

Assay Method Text: Solubility measurement of saturated solutions by HPLC at room temperature (0 h and 24 h)
Type: physicochemical
Experimental Parameters: buffered water with excipient (saturated solution), pH 4, aqueous with cosolvent or surfactant or cyclodextrin, thermodynamic from solid, CBS 30 mM pH 4.0; Glycerol 100 mg/mL; 0 h; pH exp 4.1
Property: solubility at 0 h (µg/mL)

COc1cc(N2CCNCC2)ccc1Nc1ncc2c(n1)-n1ccc(C(=O)Nc3c(C)cccc3C)c1CC2 [compound of formula (I)]
210

====

Assay Method Text: Solubility measurement of saturated solutions by HPLC at room temperature (0 h and 24 h)
Assay type: physicochemical
Experimental Parameters: buffered water with excipient (saturated solution), pH 4, aqueous with cosolvent or surfactant or cyclodextrin, thermodynamic from solid, CBS 30 mM pH 4.0, NaCl 3 mg/mL; HP-beta-CD 40 mg/mL; 0 h; pH exp 4.10
Property: solubility at 0 h

COc1cc(N2CCNCC2)ccc1Nc1ncc2c(n1)-n1ccc(C(=O)Nc3c(C)cccc3C)c1CC2 [compound of formula (I)]
1670 µg/mL

====

Assay Method Text: Solubility measurement of saturated solutions by HPLC at room temperature (0 h and 24 h)
Format: physicochemical
Experimental Parameters: buffered water with excipients, pH 4, aqueous with cosolvent or surfactant or cyclodextrin, thermodynamic from solid, CBS 30 mM pH 4.0, NaCl 3 mg/mL; SBE-beta-CD 40 mg/mL + HPMC 5 mg/mL; 24 h; pH exp 4.3
Property: solubility at 24 h

COc1cc(N2CCNCC2)ccc1Nc1ncc2c(n1)-n1ccc(C(=O)Nc3c(C)cccc3C)c1CC2
3.53 mg/mL

====

Assay Method Text: Solubility measurement of saturated solutions by HPLC at room temperature (0 h and 24 h)
Assay type: physicochemical
Experimental Parameters: buffered water with excipients, pH 4, aqueous with cosolvent or surfactant or cyclodextrin, thermodynamic from solid, CBS 30 mM pH 4.0, NaCl 3 mg/mL; SBE-beta-CD 40 mg/mL + PEG 400 30 mg/mL; 24 h; pH exp 4.2
Procedure: The vial contents are prepared starting with 2.5 mg of the compound of formula (I). The primary excipient is added followed by any further excipient and then the buffered water to a total volume of 500 μL. All components are mixed in a vortex mixer for ca. 5 minutes. […] The solubility in vial 1 is measured immediately as described below. To measure solubility 400 μl of the suspension are taken and placed in a centrifugation device above a 0.2 μm filter. […] The pH of the solution is measured. […]
Property: solubility at 24 h (µg/mL)

COc1cc(N2CCNCC2)ccc1Nc1ncc2c(n1)-n1ccc(C(=O)Nc3c(C)cccc3C)c1CC2
3860

====

Assay Method Text: Solubility measurement of saturated solutions by HPLC at room temperature (0 h and 24 h)
Assay type: physicochemical
Experimental Parameters: buffered water with excipients, pH 4, aqueous with cosolvent or surfactant or cyclodextrin, thermodynamic from solid, CBS 30 mM pH 4.0; SBE-beta-CD 54 mg/mL + Ethanol 16 mg/mL; 24 h; pH exp 4.3
Property: solubility at 24 h (µg/mL)

COc1cc(N2CCNCC2)ccc1Nc1ncc2c(n1)-n1ccc(C(=O)Nc3c(C)cccc3C)c1CC2
3850

====

Assay Method Text: Solubility measurement of saturated solutions by HPLC at room temperature (0 h and 24 h)
Format: physicochemical
Experimental Parameters: buffered water with excipient (saturated solution), pH 4, aqueous with cosolvent or surfactant or cyclodextrin, thermodynamic from solid, CBS 30 mM pH 4.0, NaCl 3 mg/mL; SBE-beta-CD 10 mg/mL; 0 h; pH exp 4.1
Property: solubility at 0 h

COc1cc(N2CCNCC2)ccc1Nc1ncc2c(n1)-n1ccc(C(=O)Nc3c(C)cccc3C)c1CC2
890 µg/mL

====

Assay Method Text: Solubility measurement of saturated solutions by HPLC at room temperature (0 h and 24 h)
Assay type: physicochemical
Experimental Parameters: buffered water with excipients, pH 4, aqueous with cosolvent or surfactant or cyclodextrin, thermodynamic from solid, CBS 30 mM pH 4.0, NaCl 3 mg/mL; SBE-beta-CD 40 mg/mL + Glycerol 5 mg/mL; 24 h; pH exp 4.3
Property: solubility at 24 h (µg/mL)

COc1cc(N2CCNCC2)ccc1Nc1ncc2c(n1)-n1ccc(C(=O)Nc3c(C)cccc3C)c1CC2
3710

====

Assay Method Text: Solubility measurement of saturated solutions by HPLC at room temperature (0 h and 24 h)
Format: physicochemical
Experimental Parameters: buffered water with excipients, pH 4, aqueous with cosolvent or surfactant or cyclodextrin, thermodynamic from solid, CBS 30 mM pH 4.0, NaCl 3 mg/mL; SBE-beta-CD 40 mg/mL + HPMC 5 mg/mL; 0 h; pH exp 4.1
Property: solubility at 0 h (µg/mL)

COc1cc(N2CCNCC2)ccc1Nc1ncc2c(n1)-n1ccc(C(=O)Nc3c(C)cccc3C)c1CC2 [compound of formula (I)]
2230

====

Assay Method Text: Solubility measurement of saturated solutions by HPLC at room temperature (0 h and 24 h)
Type: physicochemical
Experimental Parameters: buffered water with excipients, pH 4, aqueous with cosolvent or surfactant or cyclodextrin, thermodynamic from solid, CBS 30 mM pH 4.0, NaCl 3 mg/mL; SBE-beta-CD 40 mg/mL + Na CMC 5 mg/mL; 24 h; pH exp n. a.
Property: solubility at 24 h (µg/mL)

COc1cc(N2CCNCC2)ccc1Nc1ncc2c(n1)-n1ccc(C(=O)Nc3c(C)cccc3C)c1CC2 [compound of formula (I)]
2670

====

Assay Method Text: Solubility measurement of saturated solutions by HPLC at room temperature (0 h and 24 h)
Format: physicochemical
Experimental Parameters: buffered water with excipients, pH 4, aqueous with cosolvent or surfactant or cyclodextrin, thermodynamic from solid, CBS 30 mM pH 4.0, NaCl 6 mg/mL; SBE-beta-CD 40 mg/mL + Propylene glycol 10 mg/mL; 0 h; pH exp 4.1
Property: solubility at 0 h (µg/mL)

COc1cc(N2CCNCC2)ccc1Nc1ncc2c(n1)-n1ccc(C(=O)Nc3c(C)cccc3C)c1CC2 [compound of formula (I)]
2420

====

Assay Method Text: Solubility measurement of saturated solutions by HPLC at room temperature (0 h and 24 h)
Format: physicochemical
Experimental Parameters: buffered water with excipients, pH 4, aqueous with cosolvent or surfactant or cyclodextrin, thermodynamic from solid, CBS 30 mM pH 4.0, NaCl 6 mg/mL; SBE-beta-CD 40 mg/mL + Propylene glycol 20 mg/mL; 0 h; pH exp 4.1
Property: solubility at 0 h (µg/mL)

COc1cc(N2CCNCC2)ccc1Nc1ncc2c(n1)-n1ccc(C(=O)Nc3c(C)cccc3C)c1CC2
2310

====

Assay Method Text: Solubility measurement of saturated solutions by HPLC at room temperature (0 h and 24 h)
Type: physicochemical
Experimental Parameters: buffered water with excipients, pH 7, aqueous with cosolvent or surfactant or cyclodextrin, thermodynamic from solid, CBS 30 mM pH 7.0, NaCl 3 mg/mL; SBE-beta-CD 40 mg/mL; 0 h; pH exp 7.0
Property: solubility at 0 h

COc1cc(N2CCNCC2)ccc1Nc1ncc2c(n1)-n1ccc(C(=O)Nc3c(C)cccc3C)c1CC2
2230 µg/mL

====

Assay Method Text: Solubility measurement of saturated solutions by HPLC at room temperature (0 h and 24 h)
Type: physicochemical
Experimental Parameters: buffered water with excipients, pH 4, aqueous with cosolvent or surfactant or cyclodextrin, thermodynamic from solid, GBS (gluconate) 30 mM pH 4.0, NaCl 3 mg/mL; SBE-beta-CD 40 mg/mL; 0 h; pH exp 4.1
Property: solubility at 0 h

COc1cc(N2CCNCC2)ccc1Nc1ncc2c(n1)-n1ccc(C(=O)Nc3c(C)cccc3C)c1CC2
2590 µg/mL
